Biological target: Ubiquitin carboxyl-terminal hydrolase 10 (Homo sapiens) (UniProt Q14694)
Sequence (Q14694 whole entry, looked up): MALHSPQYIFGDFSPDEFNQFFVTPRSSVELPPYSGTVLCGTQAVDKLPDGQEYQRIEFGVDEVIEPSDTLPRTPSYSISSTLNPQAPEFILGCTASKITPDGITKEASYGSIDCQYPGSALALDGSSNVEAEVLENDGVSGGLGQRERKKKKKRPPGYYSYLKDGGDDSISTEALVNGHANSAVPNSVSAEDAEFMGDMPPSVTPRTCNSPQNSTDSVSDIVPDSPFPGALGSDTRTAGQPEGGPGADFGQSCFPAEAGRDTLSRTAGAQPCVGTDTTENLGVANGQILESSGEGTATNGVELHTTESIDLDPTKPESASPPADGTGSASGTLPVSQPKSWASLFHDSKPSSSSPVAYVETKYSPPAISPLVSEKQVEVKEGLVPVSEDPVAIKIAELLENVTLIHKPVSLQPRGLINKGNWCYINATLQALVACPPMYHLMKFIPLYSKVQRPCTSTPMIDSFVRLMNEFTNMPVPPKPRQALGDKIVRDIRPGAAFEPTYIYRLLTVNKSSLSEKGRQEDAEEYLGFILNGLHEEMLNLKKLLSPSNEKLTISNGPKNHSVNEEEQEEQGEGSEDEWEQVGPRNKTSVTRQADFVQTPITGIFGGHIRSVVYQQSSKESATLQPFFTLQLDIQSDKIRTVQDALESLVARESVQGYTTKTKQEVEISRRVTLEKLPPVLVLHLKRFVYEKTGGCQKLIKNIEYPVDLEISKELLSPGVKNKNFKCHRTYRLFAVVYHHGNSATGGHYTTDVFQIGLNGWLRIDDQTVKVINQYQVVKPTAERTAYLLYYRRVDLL
Test: ubiquitin-specific protease 10 DUB inhibitors, concentration-effect, biochemical, verification of primary screen actives (AID 1645863);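 further: potency values describe inhibition of USP10 cleavage of a fluorogenic ubiquitin substrate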
Conditions: USP10 deubiquitinase enzymatic assay
Calls of active or inactive are those of the source. How the calls were made is not given here.
Thanks in advance; please answer with one of these: active, inactive

Cc1ccc(-n2nc(C(=O)Nc3ccc(C)cn3)c3ncn(C)c(=O)c32)cc1 = inactive
CC/C=C\C/C=C\C/C=C\CCCCCCCC(=O)O = active
Cc1occ2c1C(=O)c1c(O)ccc(O)c1C2 = active
O=C(c1cc(S(=O)(=O)Nc2ccc(Cl)cc2)ccc1Cl)N1CCCc2ccccc21 = inactive
CC(C)c1ccc(NC(=O)COC(=O)c2ccc(NS(=O)(=O)c3ccc4c(c3)OCCO4)cc2)cc1 = active
O=C(Nc1ccc(Cn2cnc(-c3nc(-c4ccccc4)no3)c2)cc1)c1ccccc1F = inactive
O=C(CSc1nc(=O)n(Cc2ccncc2)c2c1CCC2)NCCc1ccccc1 = inactive
CC(=O)Nc1ccc(C(=O)/C=C2\NCCc3cc4c(cc32)OCCCO4)cc1 = inactive

For this compound, state the assay outcome: CCOc1ccc(-c2nc(SCC(=O)Nc3cccc(C)c3)n3[nH]c(=O)cc3n2)cc1
inactive

Status in this test for O=C(CCCc1nnc2c(=O)n(-c3cccc(F)c3)ccn12)NCc1ccc(Cl)cc1 ?
active

How did this test come out for CCCCCCCCCc1cc(OC(=O)c2c(CCCCCCCCC)cc(O)cc2O[C@@H]2O[C@H](CO)[C@@H](O)[C@H](O)[C@H]2O)cc(O)c1C(=O)O ?
active

###

Target: Ubiquitin carboxyl-terminal hydrolase 10 (Homo sapiens)
Assay: ubiquitin-specific protease 10 DUB inhibitors, concentration-effect, biochemical, verification of primary screen actives (AID 1645863);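 further: potency values describe inhibition of USP10 cleavage of a fluorogenic ubiquitin substrate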
Details: USP10 deubiquitinase enzymatic assay
The source made the active and inactive calls. The rule behind the calls is not given here.
quantity-kind: IC50

Below, each entry is followed by its recorded IC50 result.
O=C(Cn1c(=O)n(Cc2ccccc2)c(=O)c2ncccc21)NCc1ccccc1Cl = > 40 µM (inactive)
O=C(CCSc1ccc(Cl)cc1)c1cccs1 = > 40 µM (inactive)
Cc1cc(C(=O)Nc2cc([N+](=O)[O-])cc3oc(-c4ccccc4)cc23)on1 = > 40 µM (inactive)
Cc1ccccc1NC(=O)N1CCC(CC(=O)N2CCCCC2)CC1 = > 40 µM (inactive)
O=C(Cn1c(=O)[nH]c2c(-c3ccc(F)cc3)c[nH]c2c1=O)NCc1ccc(F)cc1 = > 40 µM (inactive)

Return reported IC50 values for all items listed beneath this line.
1. O=C(CCCC(=O)N(c1ccc2c(c1)OCCO2)C(C(=O)NC1CCCCC1)c1ccc(F)cc1)Nc1ccccn1 (stereo not given)
2. Cc1sc2ccn(C)c(=O)c2c1C(=O)NC1CCCC1

["27.6 µM", "27.5 µM"]

Batch request: IC50 for each of the following compounds.
1. COc1ccc(C2NC(=O)NC(C)=C2C(=O)OCC2CCCCC2)cc1OC (stereo not given)
2. COc1ccc(CNc2ccc(C(=O)OCc3ccccc3F)cc2S(=O)(=O)Nc2cccc(OC)c2)cc1
3. O=C(Cn1c(COc2ccccc2)nc2ccccc21)Nc1ccc(N2CCOCC2)cc1
4. Cc1nc2c(-c3ccc(Cl)cc3)c[nH]n2c(=O)c1Cc1ccccc1
5. COc1ccc(CCC(=O)Nc2nnc(C3CC(=O)N(c4ccc(C)cc4)C3)s2)cc1 (stereo not given)
6. O=C(c1cscn1)N1CCC2(CC1)CC1(CO2)Nc2ccccc2-n2cccc21 (stereo not given)
7. O=C1CC(C(=O)Nc2ccc3c(c2)OCO3)n2nc(SCc3ccccc3)nc2N1 (stereo not given)
8. COc1ccc(/C=C/C(=O)Nc2cccc(S(=O)(=O)Nc3ccccc3Cl)c2)c(OC)c1

1: > 40 µM (inactive); 2: > 40 µM (inactive); 3: > 40 µM (inactive); 4: > 12.6 µM (inactive); 5: 13.6 µM; 6: > 40 µM (inactive); 7: > 40 µM (inactive); 8: 15 µM

Please look at the items below and tell me IC50 for each one, in order.
1. CCNS(=O)(=O)c1ccc(-c2ccc(-n3cnnn3)cc2)cc1
2. Cc1cccc(NC(=O)Nc2ccccc2OCc2cc(=O)n3cccc(C)c3n2)c1
3. Cc1cc(N2CCN(c3ncccn3)CC2)nc2ccc(NC(=O)Cn3nc([N+](=O)[O-])c(Br)c3C)cc12
4. O=C(NC1(O)C(=O)c2ccccc2C1=O)c1cccc2c1-c1ccccc1C2=O
5. O=C(/C=C/c1ccco1)c1cccc([N+](=O)[O-])c1
6. CCN(c1ccc(NC(=O)COC(=O)c2cccnc2Nc2cccc(C(F)(F)F)c2)cc1)C(C)C
7. O=C(NCCc1cccnc1)c1ccn(-c2ccc3ccccn23)n1

1. > 40 µM (inactive)
2. 27.1 µM
3. > 40 µM (inactive)
4. 10.3 µM
5. 35.1 µM
6. > 40 µM (inactive)
7. > 40 µM (inactive)

Please go through the list and note IC50 for each compound.
1. CCCCOc1ccc(C(=O)n2ccn(S(=O)(=O)c3ccc(C)cc3)c2=O)cc1
2. CSc1ncccc1C(=O)NC1(O)C(=O)c2ccccc2C1=O
3. CC(C)=CCc1c2c(c3occ(-c4ccc(O)cc4)c(=O)c3c1O)C=CC(C)(C)O2

> 40 µM (inactive)
9.86 µM
> 40 µM (inactive)

###

Molecular target: Ubiquitin carboxyl-terminal hydrolase 10 (Homo sapiens) (UniProt Q14694)
Experiment: ubiquitin-specific protease 10 DUB inhibitors, concentration-effect, biochemical, verification of primary screen actives (AID 1645863);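 further: potency values describe inhibition of USP10 cleavage of a fluorogenic ubiquitin substrate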
Conditions: USP10 deubiquitinase enzymatic assay
Activity calls are given as the source filed them. How the calls were made is not given here.
Pick from active, inactive when you respond.

Sample answers from the record:
COc1cc(NC(=O)Cn2c(=O)n(-c3ccc(CC(=O)NC4CCCC4)cc3)c(=O)c3ccccc32)cc(OC)c1 = inactive
Cc1ccc(N2CC(C(=O)Nc3cccc(-c4noc(C)n4)c3)CC2=O)cc1 (configuration not stated) = inactive
N#Cc1cccc(NC(=O)Cn2cccc2-c2nc(-c3ccccc3)no2)c1 = inactive

Please state the recorded outcome for this compound: COc1cccc2c1NC(=O)C21CCN(C(=O)Nc2cccc3ccccc23)CC1
inactive

###

Biological target: Ubiquitin carboxyl-terminal hydrolase 10 (Homo sapiens)
Assay: ubiquitin-specific protease 10 DUB inhibitors, concentration-effect, biochemical, verification of primary screen actives (AID 1645863);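 further: potency values describe inhibition of USP10 cleavage of a fluorogenic ubiquitin substrate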
Settings: USP10 deubiquitinase enzymatic assay
Activity calls are given as the source filed them. No rule for the calls is given here.
Response enum: 1.0 for active, 0.0 for inactive

COc1ccc(Nc2nc3c(S(=O)(=O)c4ccc(C)cc4)nnn3c3ccsc23)c(OC)c1 = 1.0
Cc1cc(NC(=O)CN2CCCN(S(=O)(=O)c3ccc(F)cc3)CC2)ccc1Br = 0.0
CSCCC(NC(=O)c1ccccc1)c1nc2ccccc2n1CC(=O)Nc1ccccc1 (stereo unspecified) = 1.0

Hi, sorry to bother you, what did the test record for CCOc1ccc(-c2nnc(-c3cnc4onc(C5CCCC5)c4c3)o2)cc1 ?
1.0

Could you kindly confirm the outcome this assay logged for CS(=O)(=O)c1ccc2nc(N(Cc3cccnc3)C(=O)c3ccc4ccccc4c3)sc2c1 ?
0.0

// return assay outcome for CCOc1ccc2[nH]c(=O)c(-c3nc4ccc(C)cn4c3NCc3ccccc3)cc2c1
0.0

Kindly provide the recorded test outcome for the following compound: COC(=O)c1ccc2c(=O)n(CCCCCC(=O)NCCc3ccc(S(N)(=O)=O)cc3)c(=O)[nH]c2c1
1.0

Fill in: this test's call for COCCCNC(=O)c1ccc(Cn2c(=O)c3ccccc3n(CC(=O)Nc3ccc4c(c3)OCCO4)c2=O)cc1 is ___
0.0

Tell me the recorded outcome of this test for COc1ccc(CNC(=O)Cn2c(=O)[nH]c3c(-c4ccccc4F)c[nH]c3c2=O)cc1 .
0.0

What was the test verdict on Cc1[nH]c2ccc(F)cc2c(=O)c1CN1CCCCC1 ?
0.0

Outcome logged for COc1ccc(-c2ccc(SCC(=O)Nc3ccc(F)cc3)nn2)cc1OC in this assay:
0.0

Given COc1ccc(S(=O)(=O)N2CCc3ccccc32)cc1C(=O)Nc1ccc2c(c1)NC(=O)C(C)O2 (stereo unspecified) , state the outcome it received in this test.
0.0

Returns: the outcome recorded for Cc1c(C)n(-c2ccccc2)c2ncn(CC(=O)NCc3cccc(F)c3)c(=O)c12 in this assay.
0.0

Per the records of this test, what outcome belongs to Cc1ccc(Nc2nc(NCC(=O)Nc3cc(C)ccc3C)nc(Nc3ccc(C)cc3)n2)cc1 ?
1.0

State the result this test recorded for O=C(CCCn1c(=O)c2sccc2n(CC(=O)NCCC2=CCCCC2)c1=O)NCc1ccc2c(c1)OCO2 .
1.0

Field: outcome | Entry: COc1cccc(NC(=O)c2cn(-c3cc(N4CCCC4)ncn3)cn2)c1
0.0

Per the assay record, what outcome was assigned to CCCCC/C=C/C=C/C(=O)OC1C(O)CC(c2ccc3c(c2O)C(=O)c2c(O)cc4cc(C)cc(O)c4c2C3=O)OC1C (stereo unspecified) ?
0.0

How did this test come out for O=S(=O)(Nc1cccc(O)c1)c1ccc2oc3ccc(S(=O)(=O)Nc4cccc(O)c4)cc3c2c1 ?
1.0

Can you look up the reported call for N#C/C(=C\c1ccccc1F)c1nnc(N)s1 for me?
0.0

Any idea what this test logged for O=C(NCc1ccccc1)Nc1cccc2ccccc12 ?
0.0
